- Tgt: 11β-HSD2 Dehydrogenase (Ovis aries)
- Construct: sheep kidney microsomes; from tissue; host or cells: sheep kidney microsomes
- Sequence (P50168 1-427): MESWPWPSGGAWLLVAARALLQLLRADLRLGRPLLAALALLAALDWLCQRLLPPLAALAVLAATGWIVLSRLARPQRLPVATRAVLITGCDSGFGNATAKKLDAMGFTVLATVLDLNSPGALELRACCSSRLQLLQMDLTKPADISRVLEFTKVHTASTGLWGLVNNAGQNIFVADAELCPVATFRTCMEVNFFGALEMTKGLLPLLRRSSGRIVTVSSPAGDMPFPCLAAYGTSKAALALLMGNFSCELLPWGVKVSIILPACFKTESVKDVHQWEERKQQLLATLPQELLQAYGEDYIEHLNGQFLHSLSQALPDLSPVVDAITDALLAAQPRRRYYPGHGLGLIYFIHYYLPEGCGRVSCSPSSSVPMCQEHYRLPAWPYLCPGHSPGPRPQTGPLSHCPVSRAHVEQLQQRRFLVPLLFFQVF
- Protocol notes: 11β-HSD2 dehydrogenase inhibition, sheep kidney microsomes
- Format: biochemical
- Measurement parameters: result in words
Parameter: 11β-HSD2 Dehydrogenase inhibition

Answered examples (5):
{"columns": ["Compound", "Parameter", "Recorded measurement"],
 "data": [
  ["C[C@]12CCC(=O)C[C@@H]1CC[C@@H]1[C@@H]2[C@@H](O)C[C@]2(C)[C@@H](C(=O)CO)CC[C@@H]12 [5α-dihydro-corticosterone]", "11β-HSD2 Dehydrogenase inhibition", "Potent Inhibitor"],
  ["C[C@]12CC(=O)[C@H]3[C@@H](CCC4=CC(=O)CC[C@@]43C)[C@@H]1CC[C@@H]2O", "11β-HSD2 Dehydrogenase inhibition", "No Inhibition"],
  ["C[C@]12CC[C@@H](O)C[C@@H]1CC[C@H]1[C@@H]3CC[C@H](C(=O)CO)[C@@]3(C)CC(=O)[C@@H]12", "11β-HSD2 Dehydrogenase inhibition", "Potent Inhibitor"],
  ["C[C@H](CCC(=O)O)[C@H]1CC[C@H]2[C@@H]3[C@H](O)C[C@@H]4C[C@H](O)CC[C@]4(C)[C@H]3CC[C@]12C", "11β-HSD2 Dehydrogenase inhibition", "No Inhibition"],
  ["CC(=O)[C@H]1CC[C@H]2[C@@H]3CCC4=CC(=O)CC[C@]4(C)[C@H]3C(=O)C[C@]12C", "11β-HSD2 Dehydrogenase inhibition", "Potent Inhibitor"]
]}

Item `C[C@@]12CC[C@@H]3[C@H]([C@@H](O)C[C@]4(C=O)[C@@H](C(=O)CO)CC[C@@H]34)[C@@]1(C)CC[C@@H](O)C2` ; assay system 11β-HSD2 Dehydrogenase (Ovis aries); 11β-HSD2 Dehydrogenase inhibition reported as Potent Inhibitor

----------
- Tgt: 11β-HSD1 Reductase (Rattus norvegicus)
- Construct: testicular leydig cell homogenates; from tissue; host or cells: testicular Leydig cell homogenates
- Sequence (P16232 whole entry): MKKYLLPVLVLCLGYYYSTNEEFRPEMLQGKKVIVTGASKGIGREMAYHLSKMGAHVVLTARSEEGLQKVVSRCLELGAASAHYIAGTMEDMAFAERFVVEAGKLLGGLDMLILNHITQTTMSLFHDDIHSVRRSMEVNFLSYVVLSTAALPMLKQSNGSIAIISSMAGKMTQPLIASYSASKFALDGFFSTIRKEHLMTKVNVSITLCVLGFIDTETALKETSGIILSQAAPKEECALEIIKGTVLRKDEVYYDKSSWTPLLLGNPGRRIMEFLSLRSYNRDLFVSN
- Protocol notes: 11β-HSD1 reductase inhibition, testicular Leydig cell homogenates
- Assay type: biochemical
- Measurement parameters: result in words
Parameter: 11β-HSD1 Reductase inhibition

Known results for molecules:
{"columns": ["Mol smiles", "Tgt", "11β-HSD1 Reductase inhibition"],
 "data": [
  ["CC(=O)[C@H]1CC[C@H]2[C@@H]3CCC4=CC(=O)CC[C@]4(C)[C@H]3C(=O)C[C@]12C", "11β-HSD1 Reductase (Rattus norvegicus)", "Selective Inhibitor"],
  ["C[C@]12CC[C@H](O)C[C@H]1CC[C@@H]1[C@@H]2[C@@H](O)C[C@]2(C)C(=O)CC[C@H]12", "11β-HSD1 Reductase (Rattus norvegicus)", "No Inhibition"],
  ["C[C@]12CCC(=O)C=C1CC[C@@H]1[C@@H]2C(=O)C[C@]2(C)C(=O)CC[C@@H]12", "11β-HSD1 Reductase (Rattus norvegicus)", "Selective Inhibitor"],
  ["C[C@@]12CC[C@@H]3[C@H]([C@@H](O)C[C@]4(C=O)[C@@H](C(=O)CO)CC[C@@H]34)[C@@]1(C)CC[C@@H](O)C2", "11β-HSD1 Reductase (Rattus norvegicus)", "No Inhibition"]
]}

Switching to the query record.
// 11β-HSD1 Reductase inhibition value for `C[C@]12CC[C@H](O)C[C@@H]1CC[C@H]1[C@@H]3CC[C@H](O)[C@@]3(C)CC(=O)[C@@H]12` : Selective Inhibitor
